The reported numbers originate from the NIST ThermoML archive (doi:10.1016/j.jct.2017.08.004).

- method summary: molar heat capacity at constant pressure
- experimental conditions: 290 K; 101.33 kPa; Crystal; relaxation calorimetry
metric name: molar heat capacity at constant pressure (J/K/mol)

molecule	metric name	measured value
OC[C@@H](O)[C@H](O)[C@@H](O)CO	molar heat capacity at constant pressure	201.22
OC[C@H](O)C(O)[C@@H](O)CO [L-(-)-arabitol]	molar heat capacity at constant pressure	200.53
O[C@H]1[C@H](O)[C@@H](O)[C@H](O)[C@@H](O)[C@H]1O [cis-1,2,3,5-trans-4,6-cyclohexanehexol]	molar heat capacity at constant pressure	211.78
OC[C@@H](O)C(O)[C@H](O)CO	molar heat capacity at constant pressure	196
OC[C@@H](O)[C@@H](O)CO	molar heat capacity at constant pressure	160.61
OC[C@@H](O)[C@@H](O)[C@H](O)[C@H](O)CO	molar heat capacity at constant pressure	224.45

* * *

- method summary: molar heat capacity at constant pressure
- experimental conditions: 412.15 K; 101.33 kPa; Liquid; Small sample (50 mg) DSC
metric name: molar heat capacity at constant pressure (J/K/mol)

molecule	molar heat capacity at constant pressure / J/K/mol
OC[C@@H](O)[C@H](O)[C@@H](O)CO	443.35
OC[C@H](O)C(O)[C@@H](O)CO [L-(-)-arabitol]	449.48
OC[C@@H](O)[C@@H](O)CO	355.53
OC[C@@H](O)C(O)[C@H](O)CO	449.97

* * *

- method summary: molar heat capacity at constant pressure
- experimental conditions: 270.15 K; 101.33 kPa; Crystal; Small sample (50 mg) DSC
metric name: molar heat capacity at constant pressure (J/K/mol)

compound	measured value
OC[C@@H](O)[C@H](O)[C@@H](O)CO	188.75
OC[C@@H](O)[C@@H](O)[C@H](O)[C@H](O)CO	209.5
OC[C@@H](O)[C@@H](O)CO	149.15
O[C@H]1[C@H](O)[C@@H](O)[C@H](O)[C@@H](O)[C@H]1O [cis-1,2,3,5-trans-4,6-cyclohexanehexol]	196.44
OC[C@@H](O)C(O)[C@H](O)CO	180.88
OC[C@H](O)C(O)[C@@H](O)CO [L-(-)-arabitol]	188.37

* * *

- method summary: molar heat capacity at constant pressure
- experimental conditions: 250.15 K; 101.33 kPa; Crystal; Small sample (50 mg) DSC
metric name: molar heat capacity at constant pressure (J/K/mol)

molecule	molar heat capacity at constant pressure (J/K/mol)
OC[C@@H](O)[C@@H](O)[C@H](O)[C@H](O)CO	194.6
OC[C@@H](O)[C@H](O)[C@@H](O)CO	174.75
OC[C@@H](O)C(O)[C@H](O)CO	167.62
OC[C@@H](O)[C@@H](O)CO	138.96
OC[C@H](O)C(O)[C@@H](O)CO [L-(-)-arabitol]	172.59
O[C@H]1[C@H](O)[C@@H](O)[C@H](O)[C@@H](O)[C@H]1O [cis-1,2,3,5-trans-4,6-cyclohexanehexol]	181.03

* * *

- method summary: molar heat capacity at constant pressure
- experimental conditions: 286.15 K; 101.33 kPa; Crystal; Small sample (50 mg) DSC
metric name: molar heat capacity at constant pressure (J/K/mol)

compound	unit descriptor	molar heat capacity at constant pressure
OC[C@@H](O)[C@@H](O)[C@H](O)[C@H](O)CO	J/K/mol	221.11
O[C@H]1[C@H](O)[C@@H](O)[C@H](O)[C@@H](O)[C@H]1O [cis-1,2,3,5-trans-4,6-cyclohexanehexol]	J/K/mol	208.29
OC[C@@H](O)C(O)[C@H](O)CO	J/K/mol	192.29
OC[C@@H](O)[C@H](O)[C@@H](O)CO	J/K/mol	200.2
OC[C@@H](O)[C@@H](O)CO	J/K/mol	157.62
OC[C@H](O)C(O)[C@@H](O)CO [L-(-)-arabitol]	J/K/mol	198.9

* * *

- method summary: molar heat capacity at constant pressure
- experimental conditions: 280 K; 101.33 kPa; Crystal; relaxation calorimetry
metric name: molar heat capacity at constant pressure (J/K/mol)

compound	molar heat capacity at constant pressure [J/K/mol]
OC[C@H](O)C(O)[C@@H](O)CO [L-(-)-arabitol]	193.46
OC[C@@H](O)[C@@H](O)CO	155.49
O[C@H]1[C@H](O)[C@@H](O)[C@H](O)[C@@H](O)[C@H]1O [cis-1,2,3,5-trans-4,6-cyclohexanehexol]	204.22
OC[C@@H](O)C(O)[C@H](O)CO	189.54
OC[C@@H](O)[C@H](O)[C@@H](O)CO	194.26
OC[C@@H](O)[C@@H](O)[C@H](O)[C@H](O)CO	217.04

* * *

- experimental conditions: 3 K; 101.33 kPa; Crystal; relaxation calorimetry
metric name: molar entropy (J/K/mol)

Below, 4 compounds whose answers are already recorded.
compound	unit descriptor	molar entropy
OC[C@H](O)C(O)[C@@H](O)CO [L-(-)-arabitol]	J/K/mol	0.006332
OC[C@@H](O)[C@@H](O)CO	J/K/mol	0.007205
OC[C@@H](O)[C@@H](O)[C@H](O)[C@H](O)CO	J/K/mol	0.008828
OC[C@@H](O)C(O)[C@H](O)CO	J/K/mol	0.006257

A: OC[C@@H](O)[C@H](O)[C@@H](O)CO
B: O[C@H]1[C@H](O)[C@@H](O)[C@H](O)[C@@H](O)[C@H]1O [cis-1,2,3,5-trans-4,6-cyclohexanehexol]
Q. Of A and B , whose reported molar entropy is numerically smaller? State your choice using its label.
A. A
(A: 0.007217 J/K/mol, B: 0.01283 J/K/mol)

* * *

- experimental conditions: 10 K; 101.33 kPa; Crystal; relaxation calorimetry
metric name: molar entropy (J/K/mol)

Below, 3 molecules whose answers are already recorded.
molecule	molar entropy, J/K/mol
OC[C@H](O)C(O)[C@@H](O)CO [L-(-)-arabitol]	0.2663
OC[C@@H](O)[C@H](O)[C@@H](O)CO	0.3121
OC[C@@H](O)[C@@H](O)[C@H](O)[C@H](O)CO	0.3351

I: OC[C@@H](O)[C@@H](O)CO
II: O[C@H]1[C@H](O)[C@@H](O)[C@H](O)[C@@H](O)[C@H]1O [cis-1,2,3,5-trans-4,6-cyclohexanehexol]
Q. Which of the two gives a bigger number for molar entropy: I or II ? State your choice using its label.
A. II

* * *

- experimental conditions: 300 K; 101.33 kPa; Crystal; relaxation calorimetry
metric name: molar entropy (J/K/mol)

molecule	unit descriptor	measured value
OC[C@@H](O)[C@@H](O)[C@H](O)[C@H](O)CO	J/K/mol	228.44
OC[C@@H](O)C(O)[C@H](O)CO	J/K/mol	200.98
OC[C@H](O)C(O)[C@@H](O)CO [L-(-)-arabitol]	J/K/mol	203.17
O[C@H]1[C@H](O)[C@@H](O)[C@H](O)[C@@H](O)[C@H]1O [cis-1,2,3,5-trans-4,6-cyclohexanehexol]	J/K/mol	199.48
OC[C@@H](O)[C@@H](O)CO	J/K/mol	166.46
OC[C@@H](O)[C@H](O)[C@@H](O)CO	J/K/mol	199.41

* * *

- method summary: molar heat capacity at constant pressure
- experimental conditions: 203.15 K; 101.33 kPa; Crystal; Small sample (50 mg) DSC
metric name: molar heat capacity at constant pressure (J/K/mol)

molecule	molar heat capacity at constant pressure (J/K/mol)
O[C@H]1[C@H](O)[C@@H](O)[C@H](O)[C@@H](O)[C@H]1O [cis-1,2,3,5-trans-4,6-cyclohexanehexol]	145.49
OC[C@@H](O)[C@@H](O)[C@H](O)[C@H](O)CO [D-mannitol]	158.99
OC[C@@H](O)C(O)[C@H](O)CO [D-arabitol]	137.06
OC[C@@H](O)[C@@H](O)CO [meso-1,2,3,4-butanetetrol]	114.78
OC[C@@H](O)[C@H](O)[C@@H](O)CO [xylitol]	143.08
OC[C@H](O)C(O)[C@@H](O)CO [L-(-)-arabitol]	141.64

* * *

- experimental conditions: 40 K; 101.33 kPa; Crystal; relaxation calorimetry
metric name: molar entropy (J/K/mol)

compound	unit descriptor	measured value
O[C@H]1[C@H](O)[C@@H](O)[C@H](O)[C@@H](O)[C@H]1O [cis-1,2,3,5-trans-4,6-cyclohexanehexol]	J/K/mol	13.82
OC[C@@H](O)[C@@H](O)CO	J/K/mol	12.02
OC[C@@H](O)C(O)[C@H](O)CO	J/K/mol	13.02
OC[C@@H](O)[C@@H](O)[C@H](O)[C@H](O)CO	J/K/mol	14.89
OC[C@@H](O)[C@H](O)[C@@H](O)CO	J/K/mol	12.09
OC[C@H](O)C(O)[C@@H](O)CO [L-(-)-arabitol]	J/K/mol	13.19

* * *

- method summary: molar heat capacity at constant pressure
- experimental conditions: 223.15 K; 101.33 kPa; Crystal; Small sample (50 mg) DSC
metric name: molar heat capacity at constant pressure (J/K/mol)

compound	measured value
OC[C@@H](O)[C@@H](O)[C@H](O)[C@H](O)CO [D-mannitol]	174.98
OC[C@@H](O)C(O)[C@H](O)CO [D-arabitol]	150.71
OC[C@H](O)C(O)[C@@H](O)CO [L-(-)-arabitol]	155.35
O[C@H]1[C@H](O)[C@@H](O)[C@H](O)[C@@H](O)[C@H]1O [cis-1,2,3,5-trans-4,6-cyclohexanehexol]	161.11
OC[C@@H](O)[C@H](O)[C@@H](O)CO [xylitol]	157.01
OC[C@@H](O)[C@@H](O)CO [meso-1,2,3,4-butanetetrol]	125.31
